- System: NCI-H460
- Procedure Text: NCI tumour cell line growth inhibition, 48 h
Calls of active or inactive are those of the source. Cut-off read from the data, not from the text of the source: active = GI50 up to about 1.1 µM and inactive = higher.
Each entry below carries its reported GI50.

For orientation, consider the following solved cases.
compound=CCc1cccc2c3c([nH]c12)-c1ccccc1NC(=O)C3 reported_endpoint=GI50 value_reported="> 100 µM (inactive)"
compound=O=c1oc2ccccc2cc1-c1nnc(-c2ccccc2)s1 reported_endpoint=GI50 value_reported="28.1 µM (inactive)"
compound="CCCCCCCCCCOC1C(C(O)CNCCCN(C)C)OC2OC3(CCCCC3)OC21 (stereo unspecified)" reported_endpoint=GI50 value_reported="1.97 µM (inactive)"
compound=Cc1ccc(S(=O)(=O)O/N=C2\CCC\C2=C/c2ccccc2)cc1 reported_endpoint=GI50 value_reported="19.5 µM (inactive)"
compound=c1ccc2c(c1)SCCCSCCCS2 reported_endpoint=GI50 value_reported="> 100 µM (inactive)"
compound="CCC1(CN(C)C)CC/C(=C\\c2ccc(OC)cc2)C1=O (stereo unspecified)" reported_endpoint=GI50 value_reported="> 100 µM (inactive)"
compound=Cc1ccc(-c2n[nH]c(=O)[nH]2)cc1[N+](=O)[O-] reported_endpoint=GI50 value_reported="> 100 µM (inactive)"
compound=CCOc1ccc(/C=C2\NC(=S)N(/C=C3\C(=O)Oc4ccccc4C3=O)C2=O)cc1 reported_endpoint=GI50 value_reported="21.4 µM (inactive)"

Lookup: Item: Cc1c(C)c2ccc(OC(C)C(=O)O)cc2oc1=O (stereo unspecified) Test system: NCI-H460 Read-out: GI50 Value: ?
Found: > 100 µM (inactive)

Lookup: Ok, now "O=C(Nc1nccs1)NS(=O)(=O)n1cnc2ccccc21"
Found: > 100 µM (inactive)

Lookup: Ok, now C=C(C)C1CC2(C)C(C)CC(OC(=O)/C(C)=C\C)CC2C(OC(=O)/C(C)=C\C)C1O (stereo unspecified)
Found: 45.1 µM (inactive)

---

- Tested on: SN12C
- Procedure Text: NCI tumour cell line growth inhibition, 48 h
The source made the active and inactive calls. Rule as the data show it: active = GI50 up to about 1.1 µM and inactive = higher.
Parameter call: string, one of active, inactive

Worked examples follow.
compound=CCn1c2ccc(C(=O)CCCN(C)C)cc2c2cc(C(=O)CCCN(C)C)ccc21 experimental_system=SN12C label=active
compound=Cc1ccc(S(=O)(=O)N2CCN(CCN(C)CCN3CCN(S(=O)(=O)c4ccc(C)cc4)CC3)CC2)cc1 experimental_system=SN12C label=inactive
compound=CCOC(=O)C1=C(O)C(=O)c2ccccc2C1=O experimental_system=SN12C label=inactive
compound="Nc1nccc2c1ncn2C1C=C(CO)C(O)C1O (stereo unspecified)" experimental_system=SN12C label=inactive
compound="Oc1ccc2c(c1)OCC(O)(c1ccccc1O)C2 (stereo unspecified)" experimental_system=SN12C label=inactive

Let's switch to this compound now.
Lookup: Short answer needed: outcome of this test for "C=CCOn1c(C=C)nc2c(C)cccc21" ?
Found: inactive

---

- System: HOP-62
- Procedure Text: NCI tumour cell line growth inhibition, 48 h
Active and inactive are the calls of the source. Rule as the data show it: active = GI50 up to about 1.1 µM and inactive = higher.
Parameter call: string, one of Yes = active, No = inactive

Worked examples follow.
molecule="OCC1C(OCc2ccccc2)C(OCc2ccccc2)C(OCc2ccccc2)CN1Cc1ccccc1 (centres undefined)" label=No
molecule="CN1C2CCC1CC(CC(=O)NC(c1ccc(F)cc1)c1ccc(F)cc1)C2 (centres undefined)" label=No

Lookup: Short answer needed: outcome of this test for "CN(C)C(=S)/N=c1\ss/c(=N\C(=S)N(C)C)n1-c1cccc(Cl)c1" ?
Found: No

Lookup: Ok, now N=C(N)NCCCC(NC(=O)OCCCCCn1ccc(N)nc1=O)C(=O)O (centres undefined)
Found: No

Lookup: Ok, now "O=C(Nc1ccc([As](=O)(O)O)cc1)Nc1cccc(Cl)c1Cl"
Found: No

Lookup: Ok, now O=C1C2CC[C@@H]3C(=O)C(Cl)(Cl)[C@@H]3CCC2C1(Cl)Cl (some centres undefined)
Found: No

Lookup: Ok, now "Cc1ccccc1C(=O)N1CCc2c([nH]c3ccccc23)C1"
Found: No

---

- Tested on: SK-OV-3
- Procedure Text: NCI tumour cell line growth inhibition, 48 h
Active and inactive are the calls of the source. Cut-off read from the data, not from the text of the source: active = GI50 up to about 1.1 µM and inactive = higher.
Parameter call: string, one of 1.0 (active), 0.0 (inactive)

Worked examples follow.
compound="Cn1c(=O)n2n(c1=O)C([S+]([O-])c1ccccc1)C2 (stereo not given)" experimental_system=SK-OV-3 label=0.0
compound=C[C@H]1O[C@@H](O[C@H]2[C@@H](O)C[C@H](O[C@H]3[C@@H](O)C[C@H](O[C@H]4CC[C@@]5(C)[C@H](CC[C@@H]6[C@@H]5CC[C@]5(C)[C@@H](C7=CC(=O)OC7)CC[C@]65O)C4)O[C@@H]3C)O[C@@H]2C)C[C@H](O)[C@@H]1O experimental_system=SK-OV-3 label=1.0

Lookup: Short answer needed: outcome of this test for "CCCCCCNCCCNc1c2ccccc2nc2cccc([N+](=O)[O-])c12" ?
Found: 1.0

Lookup: Ok, now C=C1C(=O)OC2/C=C(\COC(C)=O)CCC(OC(C)=O)C3=CC(OC3=O)C12 (stereo not given)
Found: 0.0

Lookup: Ok, now "O=c1ccn([C@@H]2C=C(CO)[C@@H](O)[C@H]2O)c(=O)[nH]1"
Found: 0.0

Lookup: Ok, now "c1ccc2c(c1)SCCCSCCCS2"
Found: 0.0

---

- Test system: CAKI-1
- Procedure Text: NCI tumour cell line growth inhibition, 48 h
The source made the active and inactive calls. Cut-off read from the data, not from the text of the source: active = GI50 up to about 1.1 µM and inactive = higher.
Parameter call: string, one of true for active, false for inactive

Lookup: Short answer needed: outcome of this test for "CSc1c(C#N)c2n(c3ccccc3[n+]2C)c2ncccc12" ?
Found: false

Lookup: Ok, now CCC1(CN(C)C)CC/C(=C\c2ccc(OC)cc2)C1=O (centres undefined)
Found: false

Lookup: Ok, now "O=C1[C@H](O)[C@@H]2CCC[C@@]23CCCN13"
Found: false

Lookup: Ok, now "Sc1ncc2[nH]nnc2n1"
Found: false

---

Each entry below carries its reported GI50.
- System: KM12
- Procedure Text: NCI tumour cell line growth inhibition, 48 h
Activity calls are given as the source filed them. No stated cut-off is given here; in the data, active = GI50 up to about 1.1 µM and inactive = higher.

compound=c1ccc(-c2csc3ncn4cnnc4c23)cc1 reported_endpoint=GI50 value_reported="> 100 µM (inactive)"
compound=C[C@]12CCC(=O)C(O)=C1CCC2=O reported_endpoint=GI50 value_reported="> 100 µM (inactive)"
compound=COc1ccc(/N=N/C(C(=O)c2ccccc2)C(=O)c2ccccc2)cc1 reported_endpoint=GI50 value_reported="27 µM (inactive)"

Lookup: Item: CCOC(=O)C(NC(=O)CC)(Nc1ccc(S(=O)(=O)Nc2ccc(OC)nn2)cc1)C(F)(F)F (stereo unspecified) Test system: KM12 Read-out: GI50 Value: ?
Found: > 100 µM (inactive)

Lookup: Ok, now "CCOC(=O)C1=C(C)N(NC(=O)Nc2ccccc2)C(=O)C1=P(c1ccccc1)(c1ccccc1)c1ccccc1"
Found: > 10 µM (inactive)

Lookup: Ok, now "COc1ccc2o/c(=N\c3ccc(F)cc3)c(C(N)=O)cc2c1"
Found: > 100 µM (inactive)

Lookup: Ok, now C/C=C1\C[C@@H]2C(OC)Nc3cc(O)c(OC)cc3C(=O)N2C1 (stereo partly specified)
Found: 0.0173 µM (active)

Lookup: Ok, now CC1CCCCN1CC(=O)c1ccc2c(c1)Sc1ccccc1O2 (stereo unspecified)
Found: 16.5 µM (inactive)

Lookup: Ok, now CC1OC(O[C@@H]2OC=C(C=O)[C@@]3(O)CC[C@H](C)[C@@H]23)C(O)C(O)C1O (stereo partly specified)
Found: > 100 µM (inactive)

Lookup: Ok, now c1cc(C2O[C@H]3CCCN3[C@@H]2c2ccncc2)ccn1 (stereo partly specified)
Found: > 100 µM (inactive)

Lookup: Ok, now COC12OCCN(C)C1=CC(=O)C1N=NCC12 (stereo unspecified)
Found: > 100 µM (inactive)

---

Each entry below carries its reported GI50.
- Tested on: KM12
- Procedure Text: NCI tumour cell line growth inhibition, 48 h
Activity calls are given as the source filed them. Cut-off read from the data, not from the text of the source: active = GI50 up to about 1.1 µM and inactive = higher.

For orientation, consider the following solved cases.
compound=Nc1c(Br)c(=O)[nH]c(=O)n1COCCO experimental_system=KM12 reported_endpoint=GI50 value_reported="> 100 µM (inactive)"
compound=O=C(C/N=C(\CN(c1ccccc1)c1ccccc1)Oc1c([N+](=O)[O-])cc([N+](=O)[O-])cc1[N+](=O)[O-])N1CCNCC1 experimental_system=KM12 reported_endpoint=GI50 value_reported="> 100 µM (inactive)"
compound="COc1ccc(C(O)c2cc(OC)c(OC)c(OC)c2)cc1 (stereo unspecified)" experimental_system=KM12 reported_endpoint=GI50 value_reported="7.52 µM (inactive)"
compound="CCCCCCCCCCOC1C(C(O)CNCCCN(C)C)OC2OC3(CCCCC3)OC21 (stereo unspecified)" experimental_system=KM12 reported_endpoint=GI50 value_reported="1.51 µM (inactive)"
compound=Cn1c(=O)c2c(nc(NCCCCl)n2CC(=O)NCCCCl)n(C)c1=O experimental_system=KM12 reported_endpoint=GI50 value_reported="> 100 µM (inactive)"

Lookup: Any idea what GI50 was measured for CCCCCC/C=C1\CCC(CN(C)C)C1=O (stereo unspecified) ?
Found: 2.48 µM (inactive)

Lookup: Ok, now "COc1cccc(-c2nc(O)c3ccccc3n2)c1OC"
Found: > 100 µM (inactive)

Lookup: Ok, now "COC(=O)C(CCC1(C)OCCO1)=[N+]=[N-]"
Found: > 100 µM (inactive)

Lookup: Ok, now "O=C(O)C12CC3CC(CC(F)(C3)C1)C2"
Found: > 100 µM (inactive)

Lookup: Ok, now CC(C)CC1NC(=O)C(C(C)C)NC(=O)CC(C)COC(=O)C(CC(C)C)N(C)C(=O)C(C(C)C)NC(=O)C(C(C)C)OC1=O (stereo unspecified)
Found: > 50 µM (inactive)

Lookup: Ok, now "CC(C)(C)OC/C=C(/CO)[C@@H]1C=C[C@H](O)C1"
Found: > 100 µM (inactive)
